Each recorded value in this set is attributed to the RNAGym collection of RNA variant scans (doi:10.7554/elife.90254).

B1: LINE1-mini (parent)
chain: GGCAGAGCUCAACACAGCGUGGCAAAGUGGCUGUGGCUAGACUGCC

- Variants of: B1
- method: self-cleavage, relative activity (ratio to wild type); higher = more cleavage; in vitro, sequencing; the parent is a self-cleaving ribozyme
Given measured self-cleavage, output MET if it is greater than or equal to 0.2 and NOT MET if not.

variant identifier	group label
G1U A41U	MET
G7A G17A	NOT MET
G22A U32C	MET
G1U G5U	NOT MET
U20C G40C	NOT MET
G35U U38G	NOT MET
G27A C45A	MET
G21U G40U	NOT MET
C23U G30C	MET
A4C U38G	NOT MET
G5A C13U	NOT MET
A41C G44U	NOT MET
A16C C18G	NOT MET
C15G G21C	NOT MET
G2C G27C	NOT MET
G2C C10G	NOT MET
A4U A16G	NOT MET
A26G G27C	MET
G27U U43G	NOT MET
G5C A16C	NOT MET
A12U A14U	NOT MET
G5U A14G	NOT MET
C18G A24G	MET
G7U C46U	NOT MET
C8G A26U	NOT MET
C31A G35A	NOT MET
A11C G36C	NOT MET
C8G A39U	NOT MET
A25U C45U	MET
C13A C45A	NOT MET
G1A C37G	NOT MET
A11U G35C	NOT MET
C8A G30C	MET
G40U C45A	NOT MET
G27C C31A	NOT MET
G1C G7A	NOT MET
G5C C13A	NOT MET
G27C A39G	NOT MET
A26U G36A	MET
G2U C3G	MET
A12G C46A	MET
G5C U32C	NOT MET
C3G A6C	MET
